experimentDescription: Subcutaneous and oral toxicity (LD50) in the mouse
assayConditions: in vivo, oral, read-out: Oral toxicity (LD50)
quantityName: LD50

Entry under review: CCC[C@]1(O)CC[C@H]2[C@@H]3CCC4=CC(=O)CC[C@]4(C)[C@H]3CC[C@@]21C [Compd. I, 17α-(n-propyl)androst-4-en-17β -ol-3-one] . Reported LD50? > 5000 mg/kg

* * *

experimentDescription: Subcutaneous and oral toxicity (LD50) in the rat
assayConditions: in vivo, oral, read-out: Oral toxicity (LD50)
quantityName: LD50

Quick one: LD50 for CCC[C@]1(O)CC[C@H]2[C@@H]3CCC4=CC(=O)CC[C@]4(C)[C@H]3CC[C@@]21C [Compd. I, 17α-(n-propyl)androst-4-en-17β -ol-3-one] ? > 5000 mg/kg
